Test system: SF-268 CNS
measurementDescription: NCI-60 one-dose screen, 48 h
conditionDescription: 10 µM unless noted
Compounds without any hit were thinned out: in the full panel of roughly 83,000, 20% have a hit. Activity calls are given as the source filed them. Rule for the calls: active = growth percent below 10; inactive = the rest.
// one of active, inactive, no free text

Query block: // outcome(item) with item = "O=C(NCCNc1cc(-c2cn(-c3ccccc3)nc2-c2cccc(O)c2)ccn1)Nc1ccc(Cl)c(C(F)(F)F)c1"
Result block: inactive

Query block: And the next one, "COc1ccc(S(=O)(=O)NCCCNc2nccc(-n3cnc4ccccc43)n2)cc1" ?
Result block: inactive

Query block: Entry to check: "COc1ccc(Cn2cc3c(c2-c2ccccc2)CCCc2cnoc2-3)cc1"
Result block: inactive

Query block: Same question for "O=C1c2c(c3c4cccnc4[nH]c3c3ccc4ccccc4c23)C(=O)N1CCN1CCNCC1" please.
Result block: inactive

Query block: Same for "COc1ccc(-c2nc3cc(Cl)c(Cl)cc3n2CC(=O)N=Nc2c(O)[nH]c3ccccc23)cc1"
Result block: inactive

Query block: Also "CCOC(=O)c1c(NCC(=O)Nc2cccc([N+](=O)[O-])c2)sc2c1CCCC2" , if possible.
Result block: active

Query block: Try this compound next: CCOC(=O)/C(F)=C/C1CC1C1CCCCC1 (stereo not given)
Result block: inactive

Query block: Now the same for CCOC(=O)C1=C(C)N=C2Sc3ccccc3N2C1c1ccccc1 (stereo not given)
Result block: inactive

Query block: Same read-out for "Cn1cc(-c2nn3c(=O)cc(-c4ccccc4)nc3s2)c2cc(F)ccc21" ?
Result block: inactive

Query block: Request: "CCC(=O)Nc1cc(Nc2cc(NC3CC3)n3ncc(C#N)c3n2)ccc1C"
Result block: inactive

Query block: Now consider "O=C(Nc1ccc(Cl)cc1)Nc1nc2ccc([N+](=O)[O-])cc2s1" and answer again.
Result block: active

Query block: Query "CC1CCN(S(=O)(=O)c2ncsc2-c2ccccc2)CC1" next
Result block: inactive

Query block: Same question, "CCOC(=O)c1nn(-c2ccc(C)cc2)c(=O)c2c(N)c(C#N)c(-c3ccc(OC)cc3)cc12" this time
Result block: inactive

Query block: And what about the compound "CC(=O)NC(C)(C)C(=O)N[C@@H](C)C(=O)NC(C)(C)C(=O)N[C@@H](C)C(=O)NC(C)(C)C(=O)N[C@@H](C)C(=O)N[C@@H](CCC(N)=O)C(=O)NC(C)(C)C(=O)N[C@H](C(=O)NC(C)(C)C(=O)NCC(=O)N[C@@H](CC(C)C)C(=O)NC(C)(C)C(=O)N1CCC[C@H]1C(=O)N[C@H](C(=O)NC(C)(C)C(=O)NC(C)(C)C(=O)N[C@@H](CCC(N)=O)C(=O)N[C@@H](CCC(N)=O)C(=O)N[C@H](CO)CC1CCCCC1)C(C)C)C(C)C" ?
Result block: inactive

Query block: Moving on to "COc1ccc(Cn2cc3c(c2-c2cc(OC)c(OC)c(OC)c2)CCCc2cnoc2-3)cc1N"
Result block: inactive

Query block: Please do the same for "O=C1NC(=O)/C(=C/c2ccc(OCc3cc4ccccc4nc3Cl)cc2)S1" as well.
Result block: inactive

Query block: Proceed to C/C(=N\NC(=O)CSc1nc2sc3c(c2c(=O)n1-c1ccccc1)CCC(C)C3)c1ccc(Cl)cc1 (stereo not given)
Result block: inactive

Query block: Let us now turn to "COc1ccc(/C=N/Nc2nc(N/N=C/c3ccc(OC)cc3O)nc(N3CCOCC3)n2)c(O)c1"
Result block: inactive

Query block: Please do the same for "O=c1cc(-c2ccccc2)nc2sc(-c3c[nH]c4ccc(F)cc34)nn12" as well.
Result block: inactive

Query block: Try "Clc1ccc(-c2csc(Nc3cccc(Nc4csc(-c5ccc(Cl)cc5)n4)c3)n2)cc1" next.
Result block: inactive

Query block: Also check "N#Cc1c(NC(=O)c2ccccc2C(F)(F)F)sc2c1CCC(=O)C2"
Result block: inactive

Query block: Quick one: "COc1ccc(Cn2cc3c(c2-c2ccccc2)CCCc2cnoc2-3)cc1[N+](=O)[O-]"
Result block: inactive

Query block: Then "NS(=O)(=O)c1ccc(Nc2nc(N/N=C/c3ccc([N+](=O)[O-])cc3)nc(Nc3ccccc3)n2)cc1" ?
Result block: inactive

Query block: Same for "N/C(=N\OC(=O)CSc1nc2ccccc2s1)c1ccc(Cl)cc1"
Result block: inactive

Query block: Now the same for "Cn1cc(-c2nn3cc(-c4ccncc4)nc3s2)c2cc(Cl)ccc21"
Result block: inactive

Query block: Subsequent entry: "Cc1cc(O)c2c(c1)C(=O)C(c1c(C)cc3c(c1O)C(=O)C=CC3=O)=CC2=O"
Result block: inactive

Query block: Then "CCOC(=O)c1c(NCC(=O)Nc2cccc(Cl)c2)sc2c1CCCC2" ?
Result block: inactive

Query block: Let us now turn to "C=CCn1c(SCC(=O)Nc2cccc(C(=O)/C=C/c3ccccc3)c2)nc2ccccc2c1=O"
Result block: inactive

Query block: Follow-up item: C[C@@H]1C[C@H]2C(=O)OCC(NC(=O)[C@H](Cc3cc(F)cc(F)c3)NC(=O)Nc3ccc(Cl)cc3F)C(=O)N3CCC[C@H]3C(=O)N3CCCC[C@H]3C(=O)N[C@@H](C)C(=O)N2C1 (stereo not given in full)
Result block: inactive

Query block: Subsequent entry: "CSc1nccc(-c2c(-c3ccc(F)c(OCc4ccc(F)cc4)c3)nc3sccn23)n1"
Result block: inactive

Query block: Request: "CC(=O)Nc1ccc(NC(=O)Nc2cccc(-c3nc(-c4ccc(NC(=O)c5cccnc5)cc4Cl)no3)c2)cc1C(F)(F)F"
Result block: active

Query block: What would you report for CC1CCc2c(sc3nc(SCC(=O)N/N=C/c4cccc(O)c4O)n(-c4ccccc4)c(=O)c23)C1 (stereo not given) ?
Result block: inactive

Query block: Again, but for "Cc1cc(-c2ccc3nc(N)sc3c2)nc2ccc3[nH]ncc3c12"
Result block: inactive

Query block: One more compound: "O=c1cc(-c2ccccc2)nc2sc(-c3c[nH]c4ccc(Br)cc34)nn12"
Result block: inactive

Query block: Another: "COc1cc2c3c(n(CCCN4CCC[C@H]4C(N)=O)c(=O)c2cc1OC)-c1cc2c(cc1C3=O)OCO2"
Result block: inactive

----------
Assignment: determine reported growth for the given compounds.
Tested on: SN12C renal
measurementDescription: NCI-60 one-dose screen, 48 h (100 = growth as untreated, 0 = no growth, -100 = all killed)
conditionDescription: 10 µM unless noted
Compounds without any hit were thinned out: in the full panel of roughly 83,000, 20% have a hit.
Provide only the numeric value, understood in %.

Query block: Request: growth, test system SN12C renal, entry "C=CCn1c(SCC(=O)Nc2cccc(C(=O)/C=C/c3cccc([N+](=O)[O-])c3)c2)nc2ccccc2c1=O"
Result block: 98.3

Query block: Same question for "Cc1ccc(Cc2cnc(NC(=O)/C(C#N)=C/c3ccc(-c4ccc(Cl)cc4)o3)s2)cc1" please.
Result block: 97.4

Query block: Another compound to check: "C=CCn1c(SCC(=O)Nc2cccc(C(=O)/C=C/c3cc(OC)c(OC)c(OC)c3)c2)nc2ccccc2c1=O"
Result block: 41

Query block: Subsequent entry: "CC1(C)CC[C@]2(C(=O)N3CCCN(CC#N)CC3)CC[C@]3(C)C(=CC[C@@H]4[C@@]5(C)CC[C@H](O)C(C)(C)[C@@H]5CC[C@]43C)[C@H]2C1"
Result block: 59.6

Query block: Same thing, different compound: "COc1cc(CNC(=O)Cc2ccccc2[N+](=O)[O-])ccc1OCC(=O)NO"
Result block: 99.5

Query block: "Cc1ccc(/C=C/CC(=O)Nc2ccc(C(=O)Nc3ccc(F)cc3N)cc2)cn1" , same question.
Result block: 73.5

Query block: Subsequent entry: COc1ccc(C2C(C#N)=C(N)Oc3c2sc2ccc(C)cc32)cc1 (centres undefined)
Result block: 34.9

Query block: Another compound to look at: "O=C1NC(=O)/C(=C/c2ccc(OCc3cc4ccccc4nc3Cl)cc2)S1"
Result block: 95.9

Query block: Same thing, different compound: "C=C(C)[C@@H]1CC[C@]2(C(=O)NCCCN(CCC#N)CCC#N)CC[C@]3(C)[C@H](CC[C@@H]4[C@@]5(C)CCC(=O)C(C)(C)[C@@H]5CC[C@]43C)[C@@H]12"
Result block: 94.3

----------
Test system: SNB-19 CNS
measurementDescription: NCI-60 one-dose screen, 48 h (100 = growth as untreated, 0 = no growth, -100 = all killed)
conditionDescription: 10 µM unless noted
This is part of a sample that, as a whole, favours compounds with a hit. Of some 83,000 tested, about 20% had one in any assay.
# label = true (1) if growth >= 80% else false (0)

Query block: hey, is growth for this one >= 80%? "CC1(C)CC[C@]2(C(=O)N3CCCNCC3)CC[C@]3(C)C(=CC[C@@H]4[C@@]5(C)CCC(=O)C(C)(C)[C@@H]5CC[C@]43C)[C@H]2C1"
Result block: true (1)

Query block: Then what about the molecule C#CCOc1ccccc1C(Nc1ccccc1)c1nnnn1C1CCCCC1 (stereo not drawn) ?
Result block: true (1)

Query block: Consider next the molecule "C#C[C@]1(O)CC[C@H]2[C@@H]3CC=C4c5sc(Nc6cc(Cl)ccn6)nc5CC[C@]4(C)[C@H]3CC[C@@]21C" in the same way.
Result block: false (0)

Query block: Try this molecule too: Cc1ccc(C2CC(c3ccc(Nc4nc(NCCO)nc(Nc5ccc(Cl)cc5)n4)cc3)=Nc3c(N)nc(N)nc3N2)cc1 (stereo not drawn)
Result block: false (0)

Query block: Here is the next molecule: "CC(C)=CCc1c(O)c(CC=C(C)C)c2c(c1O)C(=O)C1=C[C@@H]3C[C@H]4C(C)(C)O[C@@](C/C=C(\C)C(=O)O)(C3=O)[C@@]14O2"
Result block: false (0)

Query block: Please answer likewise for "CS(=O)(=O)c1nccc(-c2c(-c3ccc(F)c(OCc4ccccc4)c3)nc3sccn23)n1"
Result block: true (1)

Query block: Okay, and "N#Cc1c(NC(=O)c2ccccc2C(F)(F)F)sc2c1CCC(=O)C2" ?
Result block: false (0)

Query block: Repeat for the following molecule: "Cc1cc(C(=O)Nc2ccc(SC#N)cc2)c(C)o1"
Result block: true (1)

Query block: Quick one: "CN1CCN(Cc2ccc(NC(=O)c3cncc(C#Cc4[nH]nc5ncncc45)c3)cc2C(F)(F)F)CC1"
Result block: true (1)

Query block: What about this molecule? "COc1ccc(-c2nnc(SCc3ccc(O)c4ncccc34)o2)cc1"
Result block: false (0)

Query block: // repeat for "C/C(=C(/c1ccc(O)cc1)c1ccc(OCCN2CCCCCC2)cc1)c1ccccc1" and report
Result block: false (0)

Query block: And what about the molecule "O=C1/C(=C/c2ccc([N+](=O)[O-])cc2)SC(=Nc2ccccc2)N1Nc1ccccc1" ?
Result block: false (0)

Query block: Then "CN(c1ccc(F)cc1)S(=O)(=O)c1ccc(-c2cnc(C3CC3)o2)cc1" ?
Result block: false (0)

Query block: Next molecule up: CN1C(=O)N(C)C2Nn3c(s/c(=C\c4ccccn4)c3=O)=NC21 (stereo not drawn)
Result block: true (1)

Query block: // same read-out, input: COc1ccc(C2CC(c3ccc(Nc4nc(NCCO)nc(Nc5ccc(Cl)cc5)n4)cc3)=Nc3c(N)nc(N)nc3N2)cc1 (stereo not drawn)
Result block: false (0)

Query block: Query "Cn1cc(-c2nn3cc(-c4cccnc4)nc3s2)c2cc(F)ccc21" next
Result block: true (1)

Query block: Another: "CN1CCN(Cc2ccc(NC(=O)c3cncc(C#Cc4cnc5ccc(NC6CCOCC6)nn45)c3)cc2C(F)(F)F)CC1"
Result block: false (0)
